- Target: T1, GRIP1_2, Q9Y3R0
- T1 sequence (Q9Y3R0 145-248, limits assumed, looked up): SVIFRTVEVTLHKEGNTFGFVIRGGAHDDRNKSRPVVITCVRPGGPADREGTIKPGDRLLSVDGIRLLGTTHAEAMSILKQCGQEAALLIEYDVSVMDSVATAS
- Protocol notes: holdup assay
- Design: key: below the threshold = too weak to quantify, mostly under pKd 3.1 to 4
- Condition: plain residues with an end cap or a label only (N-terminal biotin on a linker: ado-ado)
Readout type: pKd

Take a look at these entries with their results.
Binder: QLKSGRDSTV [TMEM178A, Q8NBL3]
Reported measurement: below the threshold
//
Binder: NTALVESEDL [PALLS, Q8WX93;Q8WX93-1]
Reported measurement: below the threshold
//
Binder: NNMAFETTHF [SLC5A12, Q1EHB4]
Reported measurement: below the threshold
//
Binder: ATKDKKITTV [EXOC4, Q96A65]
Reported measurement: below the threshold
//
Binder: IKLETKKTKL [SLC15A2, Q16348]
Reported measurement: below the threshold
//
Binder: KAEEKPPSKV [SCN4B, Q8IWT1]
Reported measurement: below the threshold

Parameters: items (list). Returns: pKd for each item.
1. RDYTQSSSSL [GRM5, P41594]
2. TFSRRPKTRV [CD226, Q15762]
3. AHGSTRDQSI [KCNB1, Q14721]

Out:
["below the threshold", 3.57, "below the threshold"]
